Listed next: entries and their corresponding cytotoxicity at 70.5 h.
assay_method_text: Human HepG2 cell viability assay in 384 well format
Type: toxicity, cell-based
Parameters: dose 125 nL, time 70.5 hour; concentration not given beside the values
test_parameters: HepG2 cells, read-out: Inhibition
# output: bare number, implied unit %

# annotated cases, reported cytotoxicity at 70.5 h shown
- compound: "Cc1n[nH]c(C)c1Sc1ccccc1NC(=O)CN1CCCC1"
  measurement_units: "%"
  cytotoxicity at 70.5 h: -3.41
- compound: "COC(=O)CCNC(=O)c1ccc(NC(=O)N(C)CC(C)C)cc1"
  measurement_units: "%"
  cytotoxicity at 70.5 h: 12.2
- compound: "COc1ccc(CN2C[C@@H](OCc3ccccn3)[C@H]3COC[C@H]32)cc1"
  measurement_units: "%"
  cytotoxicity at 70.5 h: -23.2
- compound: "Cc1nn(C)c(C)c1OCC(=O)N1CCCc2c(F)ccc(F)c21"
  measurement_units: "%"
  cytotoxicity at 70.5 h: 18.1
- compound: "COCC(=O)N1C[C@@H](OCc2ccncc2)[C@@H]2OCCC[C@@H]21"
  measurement_units: "%"
  cytotoxicity at 70.5 h: 52.2
- compound: "C=C(C)COc1ccccc1CN1CCCC(C(=O)NCCCO)C1 (stereo unspecified)"
  measurement_units: "%"
  cytotoxicity at 70.5 h: -8.32

Exercise: Return reported cytotoxicity at 70.5 h; argument: COCCOC(=O)N1CCN2C[C@@H](CO)[C@H](c3ccccc3)[C@H]2C1
Solution: 0.912

Exercise: # query: cytotoxicity at 70.5 h of entry Cc1cc(N2CCN(C(=O)c3cnn(C(C)C)c3)CC2)nc(N)n1
Solution: -4.23

Exercise: What value of cytotoxicity at 70.5 h has been recorded for this entry: Cn1cc(CN2C[C@H]3CCC[C@@]3(COc3ccccn3)C2)cn1
Solution: -3.17

Exercise: I have this compound here, c1cncc(OC2CCN(CCn3cc4ccccc4n3)CC2)c1 , and I need its recorded cytotoxicity at 70.5 h.
Solution: -25.2

Exercise: Name the recorded cytotoxicity at 70.5 h for CC1CCc2nc(O)c(C(=O)NCc3cccc(F)c3)cc2C1 (stereo unspecified) .
Solution: -3.12

----------
assay_method_text: Human HepG2 cell viability assay in 384 well format
Type: toxicity, cell-based
Design: dose 125 nL, time 70.5 hour; concentration not given beside the values
test_parameters: HepG2 cells, read-out: Inhibition
property_label: cytotoxicity at 70.5 h (%)
A number alone suffices; assume %.

- compound: "CCOC(=O)N1CCN(C(=O)c2ccc3ccn(C)c3c2)CC1"
  property_label: "cytotoxicity at 70.5 h"
  numeric_value: -8.79
- compound: "Cc1cc(C(=O)N2CCOC[C@H](Oc3cccnc3)C2)c(C(F)(F)F)o1"
  property_label: "cytotoxicity at 70.5 h"
  numeric_value: 9.27
- compound: "CCn1nc2c(cc1=O)CN(Cc1nc(-c3ccoc3)no1)CC2"
  property_label: "cytotoxicity at 70.5 h"
  numeric_value: 19.1
- compound: "CC(c1cccc(O)c1)N(C)S(N)(=O)=O (stereo unspecified)"
  property_label: "cytotoxicity at 70.5 h"
  numeric_value: 37
- compound: "COCCNC(=O)C(C)N1CCN(C)CC1 (stereo unspecified)"
  property_label: "cytotoxicity at 70.5 h"
  numeric_value: -5.18
- compound: "CCOC(=O)C1(Cc2cccc(OC)c2)CCN(Cc2ncc[nH]2)CC1"
  property_label: "cytotoxicity at 70.5 h"
  numeric_value: -8.46

Exercise: // lookup cytotoxicity at 70.5 h for Cc1ccccc1CCC1CCCN(Cc2c(C)[nH]c(=O)[nH]c2=O)C1 (stereo unspecified)
Solution: -8.6

Exercise: So what does the record say about cytotoxicity at 70.5 h for Cc1noc(C)c1CN(C)CCc1nc(-c2cccc(Cl)c2)no1 ?
Solution: -10.4

Exercise: Quick one: cytotoxicity at 70.5 h for Cn1/c(=N/C(=O)CSCC(=O)Nc2nccs2)sc2ccccc21 ?
Solution: 2.4

Exercise: Quick check: cytotoxicity at 70.5 h of Cc1nc(C2(NC(=O)NCc3cc(C#N)ccc3F)CCCC2)no1 ?
Solution: -10.1

Exercise: Entry Cc1cnn(CC2CN(Cc3nc4ccccc4o3)CCO2)c1 (stereo unspecified) has what cytotoxicity at 70.5 h?
Solution: -12.1
